Entries and their Ki
# test.target: Urokinase-type plasminogen activator (Homo sapiens, UniProt P00749)

| smiles | unit.annotation | Ki |
| --- | --- | --- |
| COc1ccc2ccc(C(=N)N)cc2c1-c1cnn(C)c1 | µM | 4.6 |
| CCSc1cc(-c2cc(C(=O)Nc3ccccc3)cc3ccc(C(=N)N)cc23)co1 | µM | 0.04 |

====

# test.target: Prothrombin (Homo sapiens, UniProt P00734)
pKi: −log10 of the molar value.

| compound | pKi |
| --- | --- |
| COc1ccc2ccc(C(=N)N)cc2c1-c1cnn(S(C)(=O)=O)c1 | 5.15 |
| N=C(N)c1ccc2cc(C(=O)Nc3ccccc3)cc(C3CCOC3)c2c1 (configuration not stated) | 6.44 |
| CCS(=O)(=O)c1cc(-c2cc(C(=O)Nc3ccccc3)cc3ccc(C(=N)N)cc23)co1 | 6.54 |
| CCSc1cc(-c2cc(C(=O)Nc3ccccc3)cc3ccc(C(=N)N)cc23)co1 | 6.92 |
| [H]/N=C(/N)c1ccc2cc(C(=O)Nc3ccccc3)cc(Nc3ncccn3)c2c1 | 6.77 |
| CCS(=O)(=O)c1cc(-c2cc(C(=O)Nc3cccc(OC4CCCC4)c3)cc3ccc(C(=N)N)cc23)co1 | 6.21 |
| N=C(N)c1ccc2cc(C(=O)Nc3ccccc3)cc(-c3ccoc3)c2c1 | 6.89 |

====

# test.target: Tissue-type plasminogen activator (Homo sapiens, UniProt P00750)
# Sequence (P00750 whole entry): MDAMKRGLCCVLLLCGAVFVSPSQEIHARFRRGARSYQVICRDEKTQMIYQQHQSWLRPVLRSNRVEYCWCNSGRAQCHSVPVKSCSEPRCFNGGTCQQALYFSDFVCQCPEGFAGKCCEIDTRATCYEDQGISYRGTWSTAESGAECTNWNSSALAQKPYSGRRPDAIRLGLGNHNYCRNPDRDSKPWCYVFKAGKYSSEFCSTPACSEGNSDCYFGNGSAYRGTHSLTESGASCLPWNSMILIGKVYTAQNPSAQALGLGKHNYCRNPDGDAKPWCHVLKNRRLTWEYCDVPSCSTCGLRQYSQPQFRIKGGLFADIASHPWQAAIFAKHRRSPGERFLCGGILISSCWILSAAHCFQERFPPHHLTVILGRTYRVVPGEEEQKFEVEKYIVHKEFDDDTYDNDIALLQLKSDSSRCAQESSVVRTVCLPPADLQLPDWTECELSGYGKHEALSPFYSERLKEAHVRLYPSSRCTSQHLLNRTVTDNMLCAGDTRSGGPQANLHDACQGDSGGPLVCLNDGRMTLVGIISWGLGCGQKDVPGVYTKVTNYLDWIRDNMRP
pKi: −log10 of the molar value.
outcome.measure: pKi

| compound | result.qualifier | experimental.value |
| --- | --- | --- |
| COc1ccc2ccc(C(=N)N)cc2c1-c1ccoc1 | = | 4.74 |
| N=C(N)c1ccc2cc(C(=O)Nc3ccccc3)cc(-c3ccoc3)c2c1 | = | 6.74 |
| [H]/N=C(/N)c1ccc2cc(C(=O)Nc3ccccc3)cc(Nc3ncccn3)c2c1 | = | 6.09 |
| COc1ccc2ccc(C(=N)N)cc2c1C1CCOC1 (stereo not given) | = | 5.13 |
| N=C(N)c1ccc2ccccc2c1 | < | 4.00 |

====

Parameter 'readout' = Ki; parameter 'system' = Plasminogen (Homo sapiens, UniProt P00747).
Sequence (P00747 97-580 limits assumed): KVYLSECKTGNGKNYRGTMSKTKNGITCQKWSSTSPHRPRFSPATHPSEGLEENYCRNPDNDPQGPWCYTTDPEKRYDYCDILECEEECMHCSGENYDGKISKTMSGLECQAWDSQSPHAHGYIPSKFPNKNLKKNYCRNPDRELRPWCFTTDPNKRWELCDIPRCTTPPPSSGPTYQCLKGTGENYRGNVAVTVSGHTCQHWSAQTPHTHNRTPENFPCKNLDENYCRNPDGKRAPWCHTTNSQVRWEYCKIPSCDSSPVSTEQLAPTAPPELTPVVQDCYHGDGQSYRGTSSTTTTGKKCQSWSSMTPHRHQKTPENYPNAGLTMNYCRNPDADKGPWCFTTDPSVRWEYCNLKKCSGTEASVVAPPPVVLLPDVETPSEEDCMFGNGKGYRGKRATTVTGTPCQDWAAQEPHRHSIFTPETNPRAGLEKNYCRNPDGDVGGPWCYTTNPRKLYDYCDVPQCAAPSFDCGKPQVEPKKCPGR
Sequence (P00747 581-810 limits assumed): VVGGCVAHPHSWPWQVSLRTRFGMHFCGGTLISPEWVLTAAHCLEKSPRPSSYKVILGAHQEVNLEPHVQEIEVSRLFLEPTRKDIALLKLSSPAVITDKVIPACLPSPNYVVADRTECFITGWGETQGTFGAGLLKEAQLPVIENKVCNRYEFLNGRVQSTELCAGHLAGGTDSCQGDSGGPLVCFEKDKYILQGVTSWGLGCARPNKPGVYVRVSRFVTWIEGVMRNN

| molecule | Ki, nM |
| --- | --- |
| CCSc1cc(-c2cc(C(=O)Nc3ccccc3)cc3ccc(C(=N)N)cc23)co1 | 53 |
| CCS(=O)(=O)c1cc(-c2cc(C(=O)Nc3cccc(OC4CCCC4)c3)cc3ccc(C(=N)N)cc23)co1 | 38 |
| CCS(=O)(=O)c1cc(-c2cc(C(=O)Nc3ccccc3)cc3ccc(C(=N)N)cc23)co1 | 56 |
| [H]/N=C(/N)c1ccc2cc(C(=O)Nc3ccccc3)cc(Nc3ncccn3)c2c1 | 90 |
| N=C(N)c1ccc2cc(C(=O)Nc3ccccc3)cc(C3CCOC3)c2c1 (configuration not stated) | 400 |
| COc1ccc2ccc(C(=N)N)cc2c1-c1cnn(S(C)(=O)=O)c1 | 8500 |
| N=C(N)c1ccc2cc(C(=O)Nc3ccc(CN)cc3)cc(Nc3ncccn3)c2c1 | 150 |

====

Entries and their pKi
# procedure.text: Binding affinity against trypsin
pKi: −log10 of the molar value.
outcome.measure: pKi

| smiles | outcome.measure | experimental.value |
| --- | --- | --- |
| N=C(N)c1ccc2ccccc2c1 | pKi | 5.11 |
| N=C(N)c1ccc2cc(C(=O)Nc3ccccc3)ccc2c1 | pKi | 6.48 |
